Assay: in vivo
Settings: female, Balb/cJ, mouse, ip
MEASURED PROPERTY: half-life (h)
Write down the numeric answer in h and omit the unit.

Query string: Any idea what half-life was measured for `CCCCCCCCCCCCCC(=O)N[C@@H](CC(N)=O)C(=O)N[C@@H](CC(C)C)C(=O)N[C@]1(C)CCCCCCC=CCCC[C@@](C)(C(=O)N[C@@H](CCC(=O)O)C(=O)N[C@@H](CC(C)C)C(=O)N[C@@H](CC(N)=O)C(N)=O)NC(=O)[C@H](CC(C)C)NC(=O)[C@H](CC(C)C)NC(=O)[C@H](CCCNC(=N)N)NC(=O)[C@H](CC(=O)O)NC(=O)[C@H](CC(C)C)NC(=O)[C@H](CCC(=O)O)NC1=O` ?
Result string: 16.5

Values were extracted from paper PMC11871066.
